Data provenance: patent US20100197688A1

# collection of IC50 values tested on Jak2 (Homo sapiens)
# Sequence (O60674 whole entry, species assumed): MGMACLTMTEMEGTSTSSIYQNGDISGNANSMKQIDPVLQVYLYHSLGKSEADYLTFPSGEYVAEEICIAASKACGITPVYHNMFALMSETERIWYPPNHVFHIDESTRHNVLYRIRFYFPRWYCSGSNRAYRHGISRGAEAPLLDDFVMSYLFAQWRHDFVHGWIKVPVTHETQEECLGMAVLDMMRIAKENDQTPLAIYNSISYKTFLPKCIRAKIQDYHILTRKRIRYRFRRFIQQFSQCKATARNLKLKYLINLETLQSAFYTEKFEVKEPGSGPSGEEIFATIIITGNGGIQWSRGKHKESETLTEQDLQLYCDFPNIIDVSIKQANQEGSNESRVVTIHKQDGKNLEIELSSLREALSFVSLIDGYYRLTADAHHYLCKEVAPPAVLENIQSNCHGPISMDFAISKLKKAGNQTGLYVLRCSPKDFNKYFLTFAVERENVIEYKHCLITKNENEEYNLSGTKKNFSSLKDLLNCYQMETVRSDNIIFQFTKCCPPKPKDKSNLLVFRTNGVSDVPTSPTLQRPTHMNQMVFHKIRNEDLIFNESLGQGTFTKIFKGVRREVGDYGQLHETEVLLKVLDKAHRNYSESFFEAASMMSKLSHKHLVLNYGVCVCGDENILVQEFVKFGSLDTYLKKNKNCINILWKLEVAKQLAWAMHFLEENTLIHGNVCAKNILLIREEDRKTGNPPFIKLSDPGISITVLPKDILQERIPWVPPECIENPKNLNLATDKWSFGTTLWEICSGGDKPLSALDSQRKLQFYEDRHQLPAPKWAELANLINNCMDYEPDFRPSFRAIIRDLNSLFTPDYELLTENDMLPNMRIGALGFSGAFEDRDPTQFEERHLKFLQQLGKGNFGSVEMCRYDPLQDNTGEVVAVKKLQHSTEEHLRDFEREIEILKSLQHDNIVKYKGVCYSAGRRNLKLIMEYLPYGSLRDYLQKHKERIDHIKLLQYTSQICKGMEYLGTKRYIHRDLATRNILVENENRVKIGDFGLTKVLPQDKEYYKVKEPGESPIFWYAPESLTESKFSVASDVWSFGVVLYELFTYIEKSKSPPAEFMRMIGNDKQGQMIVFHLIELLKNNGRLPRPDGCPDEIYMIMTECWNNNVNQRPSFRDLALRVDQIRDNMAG

Report IC50 for each item below.
1. Cc1ccc(NC(=O)c2cccc(C(F)(F)F)c2)cc1-c1ccc(-n2cccn2)cc1 [Example 120]
2. Cc1ccc(NC(=O)c2cccc(C(F)(F)F)c2)cc1-c1ccc(O)c(NC=O)c1 [Example 133]

result:
["> 100 µM", "> 100 µM"]

---

Tested on: Primary Rat cortical astrocytes
test description: Scratch wound assay, astrocytes
Assay type: cell-based
measurement context: Rattus norvegicus, Astrocyte; inflexion point; from AUC of % wound confluence; read-out: Scratch Assay Astrocytes IP
measure: IC50 (µM)
One number for each entry, in µM.

query: Specify reported IC50 for the compound shown: Cc1ccc(NC(=O)c2cccc(C(F)(F)F)c2)cc1-c1ccc(O)c(NC=O)c1 [Example 133]
result: 5

---

Please consider the recorded IC50 for P60c-src (Homo sapiens, UniProt P12931) in what follows.

>>> result("Cc1ccc(NC(=O)c2cccc(C(F)(F)F)c2)cc1-c1ccc(O)c(NC=O)c1")
"> 100 µM"

Here's the next entry for you.
query: Please indicate IC50 recorded for `Cc1ccc(NC(=O)c2cccc(C(F)(F)F)c2)cc1-c1ccc(-n2cccn2)cc1`
result: > 100 µM

---

study target: human form of EphA4 receptor (Homo sapiens)
Sequence (P54764 20-986): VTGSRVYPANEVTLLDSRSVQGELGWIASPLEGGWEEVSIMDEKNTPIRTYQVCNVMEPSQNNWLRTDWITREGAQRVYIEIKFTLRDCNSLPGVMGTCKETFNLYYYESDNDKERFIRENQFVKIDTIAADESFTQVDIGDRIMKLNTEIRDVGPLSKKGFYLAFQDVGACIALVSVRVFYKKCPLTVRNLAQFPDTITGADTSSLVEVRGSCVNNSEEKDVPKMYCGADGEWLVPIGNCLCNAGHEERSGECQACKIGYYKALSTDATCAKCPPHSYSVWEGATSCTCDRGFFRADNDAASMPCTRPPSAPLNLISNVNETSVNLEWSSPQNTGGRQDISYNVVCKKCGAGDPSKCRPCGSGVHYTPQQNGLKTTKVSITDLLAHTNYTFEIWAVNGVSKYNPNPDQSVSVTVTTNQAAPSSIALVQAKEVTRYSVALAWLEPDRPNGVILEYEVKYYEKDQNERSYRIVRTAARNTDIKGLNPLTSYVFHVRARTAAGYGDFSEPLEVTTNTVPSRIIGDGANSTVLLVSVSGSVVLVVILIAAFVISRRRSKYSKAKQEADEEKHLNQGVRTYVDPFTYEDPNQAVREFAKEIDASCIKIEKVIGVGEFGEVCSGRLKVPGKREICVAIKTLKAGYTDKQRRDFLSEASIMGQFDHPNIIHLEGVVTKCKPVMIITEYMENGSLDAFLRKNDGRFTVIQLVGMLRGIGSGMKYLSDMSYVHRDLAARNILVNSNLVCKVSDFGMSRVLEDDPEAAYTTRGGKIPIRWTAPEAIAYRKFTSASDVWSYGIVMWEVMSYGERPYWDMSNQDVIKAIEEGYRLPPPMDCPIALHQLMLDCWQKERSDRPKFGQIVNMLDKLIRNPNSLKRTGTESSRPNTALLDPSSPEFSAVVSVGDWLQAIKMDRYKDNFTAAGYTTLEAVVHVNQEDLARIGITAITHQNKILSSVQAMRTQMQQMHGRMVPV
test description: EphA4 cell-based assay (pGAS-luciferase in EphA4-transfected CHO-K1 cells)
measurement context: inflexion point, read-out: EphA4 Cell Assay IP
Would you kindly list pIC50 for each of these molecules?
One number for each entry, as −log10 of the molar value.

Quick one: give me pIC50 for each item below, same order please.
1. Cc1ccc(NC(=O)c2cccc(C(F)(F)F)c2)cc1-c1ccc(-n2cccn2)cc1
2. Cc1ccc(NC(=O)c2cccc(C(F)(F)F)c2)cc1-c1ccc(O)c(NC=O)c1

result:
1: 5.25; 2: 5.08
